assay.explanation: Hemolysis assay
Assay type: cell-based, horse
recorded.conditions: horse, erythrocytes (2% suspension); at the peptide's maximum MIC; relative to Triton X-100; read-out: Hemolysis under the Maximum MIC
Residues, ends and D or L forms follow the SMILES beside them.
reported.property: hemolysis at 2 h (%)
Answers are plain numbers, in %.

Per the records, this compound ( CC[C@H](C)[C@H](NC(=O)[C@H](CCCNC(=N)N)NC(=O)[C@H](CCCNC(=N)N)NC(=O)[C@H](CC(C)C)NC(=O)[C@@H](N)CCCNC(=N)N)C(=O)N[C@@H](CC(C)C)C(=O)N[C@@H](CCCNC(=N)N)C(=O)N[C@@H](CCCCN)C(=O)N[C@H](C(=O)N[C@H](C(=O)N[C@@H](CCCNC(=N)N)C(=O)N[C@@H](CCCNC(=N)N)C(=O)N[C@@H](CC(C)C)C(N)=O)C(C)C)[C@@H](C)CC [Crabrolin-PR, RLRRILRKIVRRL-NH2] (H-RLRRILRKIVRRL-NH2) ) has hemolysis at 2 h equal to 3.09
